Please respond with reported IC50 for every item in the list.
Target: human Nav1.8 (Homo sapiens (Human))
Sequence (Q9Y5Y9 whole entry): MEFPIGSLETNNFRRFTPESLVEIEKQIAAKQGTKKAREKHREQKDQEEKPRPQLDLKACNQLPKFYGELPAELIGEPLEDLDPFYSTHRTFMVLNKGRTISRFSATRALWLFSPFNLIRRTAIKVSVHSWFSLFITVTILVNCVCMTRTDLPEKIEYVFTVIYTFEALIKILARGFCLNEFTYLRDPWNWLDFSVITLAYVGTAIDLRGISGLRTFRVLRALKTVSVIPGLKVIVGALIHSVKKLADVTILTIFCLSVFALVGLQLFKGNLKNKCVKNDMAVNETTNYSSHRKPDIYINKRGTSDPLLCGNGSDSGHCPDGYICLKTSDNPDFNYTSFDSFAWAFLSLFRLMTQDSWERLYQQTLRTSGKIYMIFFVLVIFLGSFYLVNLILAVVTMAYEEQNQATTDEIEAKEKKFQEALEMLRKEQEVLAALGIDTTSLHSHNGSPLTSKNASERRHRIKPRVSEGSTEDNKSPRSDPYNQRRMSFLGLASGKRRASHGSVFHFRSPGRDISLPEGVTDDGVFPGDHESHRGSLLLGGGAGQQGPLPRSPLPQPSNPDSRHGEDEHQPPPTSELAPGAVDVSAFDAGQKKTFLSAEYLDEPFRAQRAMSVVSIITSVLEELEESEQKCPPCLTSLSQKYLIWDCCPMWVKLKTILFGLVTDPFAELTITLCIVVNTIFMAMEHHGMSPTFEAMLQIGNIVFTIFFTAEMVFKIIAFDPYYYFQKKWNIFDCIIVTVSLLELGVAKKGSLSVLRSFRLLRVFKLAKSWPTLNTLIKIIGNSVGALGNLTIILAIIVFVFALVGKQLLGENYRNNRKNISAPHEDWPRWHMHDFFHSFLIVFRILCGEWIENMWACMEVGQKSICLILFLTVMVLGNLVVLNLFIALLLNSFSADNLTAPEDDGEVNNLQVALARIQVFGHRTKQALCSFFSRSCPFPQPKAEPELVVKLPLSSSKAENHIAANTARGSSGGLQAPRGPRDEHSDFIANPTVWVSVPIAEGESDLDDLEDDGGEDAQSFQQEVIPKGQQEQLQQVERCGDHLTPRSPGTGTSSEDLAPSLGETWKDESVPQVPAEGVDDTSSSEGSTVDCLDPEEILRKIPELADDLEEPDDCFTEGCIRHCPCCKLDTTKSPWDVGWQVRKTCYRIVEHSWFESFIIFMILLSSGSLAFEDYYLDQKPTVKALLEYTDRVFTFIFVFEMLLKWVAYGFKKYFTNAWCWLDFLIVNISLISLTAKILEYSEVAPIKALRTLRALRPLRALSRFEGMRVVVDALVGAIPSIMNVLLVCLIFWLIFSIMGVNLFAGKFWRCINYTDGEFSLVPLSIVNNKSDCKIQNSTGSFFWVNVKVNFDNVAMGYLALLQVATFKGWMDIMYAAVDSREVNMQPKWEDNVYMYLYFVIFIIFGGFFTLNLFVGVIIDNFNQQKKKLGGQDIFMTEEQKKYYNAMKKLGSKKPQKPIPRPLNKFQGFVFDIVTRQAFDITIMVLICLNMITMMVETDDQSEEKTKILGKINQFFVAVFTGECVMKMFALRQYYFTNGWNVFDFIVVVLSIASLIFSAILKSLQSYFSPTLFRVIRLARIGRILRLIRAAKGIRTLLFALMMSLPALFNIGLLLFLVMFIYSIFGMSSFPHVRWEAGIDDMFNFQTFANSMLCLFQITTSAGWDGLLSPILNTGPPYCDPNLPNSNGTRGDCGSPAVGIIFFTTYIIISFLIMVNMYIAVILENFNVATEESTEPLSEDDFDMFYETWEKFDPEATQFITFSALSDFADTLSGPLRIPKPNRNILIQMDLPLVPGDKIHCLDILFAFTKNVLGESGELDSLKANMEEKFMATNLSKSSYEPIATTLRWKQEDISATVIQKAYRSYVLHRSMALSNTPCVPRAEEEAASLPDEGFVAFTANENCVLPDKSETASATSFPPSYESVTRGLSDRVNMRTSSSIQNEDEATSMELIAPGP
Assay: Nav1.8 Qube automated patch-clamp assay
Format: cell-based
Conditions: Nav1.8 Qube Assay; human Nav1.8 channels stably expressed in HEK 293 cells
Description: Qube® Assay Experimental Procedure Compounds were tested on human Nav1.8 and Nav1.5 channels stably expressed in human embryo kidney (HEK) 293 cells. […] For all Qube® experiments offline analysis was used to determine percent inhibition as a function of drug concentration. IC50 values were determined by fitting to the Hill equation.

Worked examples, 5 compounds total:
{"COMPOUND": "NS(=O)(=O)c1cccc(NC(=O)c2cc(-c3cccnc3)cnc2N2CCCCCC2)c1 [Example 34]", "RESULT VALUE": "603 nM"}
{"COMPOUND": "CS(=O)(=O)c1cccc(NC(=O)c2cc(C(F)(F)F)cnc2N2Cc3ccccc3C2)c1 [Example 103]", "RESULT VALUE": "2330 nM"}
{"COMPOUND": "Cc1nc(N2CCCCC2)c(C(=O)Nc2cccc(C(N)=O)c2)c(C)c1Cl [Example 19]", "RESULT VALUE": "295 nM"}
{"COMPOUND": "NS(=O)(=O)c1cccc(NC(=O)c2cc(C(F)(F)F)cnc2N2CC3(CCOCC3)C2)c1 [Example 81]", "RESULT VALUE": "4240 nM"}
{"COMPOUND": "NC(=O)c1cccc(NC(=O)c2cc(C(F)(F)C(F)(F)F)cnc2N2CCCCCC2)c1 [Example 167]", "RESULT VALUE": "85 nM"}

Below are 3 compounds. Give each one its IC50.
1. CC1CN(c2ncc(C(F)(F)F)cc2C(=O)Nc2ccc3c(c2)S(=O)(=O)NC3)CCC1(F)F (single isomer, unassigned) [Example 113]
2. O=C(Nc1ccc2c(c1)S(=O)(=O)NC2)c1cc(C(F)(F)F)cnc1N1CCCCCC1 [Example 121]
3. NS(=O)(=O)c1cc(NC(=O)c2cc(C(F)(F)F)cnc2N2CCCCC2)ccc1F [Example 115]

Result:
1: 73 nM; 2: 189 nM; 3: 567 nM
